- TEST_TARGET: T1, KicGAS (Kaposi sarcoma-associated herpesvirus …, UniProt Q2HR80 1-131)
- T1 sequence: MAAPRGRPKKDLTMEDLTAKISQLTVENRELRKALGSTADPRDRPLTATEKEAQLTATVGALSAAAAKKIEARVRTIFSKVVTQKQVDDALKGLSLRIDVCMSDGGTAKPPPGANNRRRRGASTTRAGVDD
- PROCEDURE_DETAILS: fluorescence polarization; Hill n 1.84; EMSA: 20 mM Tris-HCl pH 7.4, 150 mM NaCl, 10% glycerol, on ice, 20 nM FAM-DNA, gel at 4 C; FP: 400 pg/ul FAM-DNA, buffer and temperature not stated; Hill fits
- CONDITION_DESCRIPTION: protein: recombinant; tags: Avi-His6-SUMO removed (tag-free); label: 5' FAM sense strand; blunt
pKd: −log10 of the molar value.
OBSERVATION_TYPE: pKd

{"BINDER": "ISD25 (dsDNA) DNA 1: CTAGTGATCTATGACTGATCTGTAC DNA 2: GTACAGATCAGTCATAGATCACTAG", "OBSERVATION_TYPE": "pKd", "MEASURED_NUMBER": 6.36}

Origin of the recorded values: paper PMC8450086
